Values were extracted from paper PMC3446843.

Entries and their measured O2 cons CI EC20 follow.
# Test system: isolated mouse liver mitochondria, complex I
# experiment: Oxygen consumption through complex I
# details: inhibition of oxygen consumption, malate + glutamate + ADP; 2µM rotenone = 100%
The reply should contain only the number, in µM.

Ask | Report O2 cons CI EC20 for CC[C@H](C)C(=O)O[C@H]1C[C@@H](C)C=C2C=C[C@H](C)[C@H](CC[C@@H]3C[C@@H](O)CC(=O)O3)[C@H]21 please.
Reply | 6.2

Ask | Request: Nc1nc2ncc(CNc3ccc(C(=O)N[C@@H](CCC(=O)O)C(=O)O)cc3)nc2c(=O)[nH]1
Reply | 213.0

Ask | Request: C=CC1=C(C(=O)O)N2C(=O)[C@@H](NC(=O)/C(=N\OCC(=O)O)c3csc(N)n3)[C@H]2SC1
Reply | 216.8

----------
# System: isolated mouse liver mitochondria
# experiment: Loss of mitochondrial transmembrane potential
# Type: biochemical
# details: 20% of maximal loss of ΔΨm (50µM mClCCP = 100%), 30-min incubation
Binning of ΔΨm loss EC20 into classes: low-valued: < 80 µM; mid-valued: ≥ 80 µM and < 300 µM; high-valued: ≥ 300 µM

Ask | Hi there! Could you help me figure out the category for CCN(CC)CC(=O)Nc1c(C)cccc1C please?
Reply | high-valued

Ask | Request: CC1(C)S[C@@H]2[C@H](NC(=O)[C@H](N)c3ccccc3)C(=O)N2[C@H]1C(=O)O
Reply | high-valued

Ask | Request: Cn1c(=O)c2c(ncn2C)n(C)c1=O
Reply | high-valued

Ask | Request: CC(C)C(=O)Nc1ccc([N+](=O)[O-])c(C(F)(F)F)c1 [Flutamide]
Reply | low-valued

Ask | Request: Cc1cn([C@H]2C[C@H](N=[N+]=[N-])[C@@H](CO)O2)c(=O)[nH]c1=O
Reply | high-valued

Ask | Request: CN(C)C(=N)N=C(N)N
Reply | high-valued

Ask | Request: C1CCC(C(CC2CCCCN2)C2CCCCC2)CC1 (stereo not drawn)
Reply | low-valued

Ask | Request: OC[C@H]1O[C@@](CO)(O[C@H]2O[C@H](CO)[C@@H](O)[C@H](O)[C@H]2O)[C@@H](O)[C@@H]1O
Reply | high-valued

Ask | Request: CCC1=C(C)CN(C(=O)NCCc2ccc(S(=O)(=O)NC(=O)N[C@H]3CC[C@H](C)CC3)cc2)C1=O [Glimepiride]
Reply | mid-valued

Ask | Request: CN(C/C=C/C#CC(C)(C)C)Cc1cccc2ccccc12
Reply | low-valued

Ask | Request: CCCN(CCC)C(=O)Cc1c(-c2ccc(Cl)cc2)nc2ccc(Cl)cn12
Reply | mid-valued

Ask | Request: O=C1NS(=O)(=O)c2ccccc21
Reply | high-valued

Ask | Request: NC(=O)c1cnccn1 [Pyrazinamide]
Reply | high-valued

Ask | Request: CCN(CC)CC#CCOC(=O)C(O)(c1ccccc1)C1CCCCC1 (stereo not drawn)
Reply | mid-valued

----------
# Tested on: isolated mouse liver mitochondria, complex I
# experiment: Oxygen consumption through complex I
# details: inhibition of oxygen consumption, malate + glutamate + ADP; 2µM rotenone = 100%
Entries and their measured O2 cons CI EC20 follow.
The reply should contain only the number, in µM.

Below are worked cases with known answers.
- compound: "CNC(=C[N+](=O)[O-])NCCSCc1ccc(CN(C)C)o1 [Ranitidine]"
  O2 cons CI EC20 / µM: 97.3
- compound: "CC(=O)N1CCN(c2ccc(OCC3COC(Cn4ccnc4)(c4ccc(Cl)cc4Cl)O3)cc2)CC1 (centres unmarked) [Ketoconazole]"
  O2 cons CI EC20 / µM: 2.9
- compound: "O=C(O)c1cc(O)c(O)c(O)c1 [Gallic acid]"
  O2 cons CI EC20 / µM: 153.9

Ask | Report O2 cons CI EC20 for C#CCN(C)Cc1ccccc1 [Pargyline] please.
Reply | 206.8
